# targetDesc: 15-PGDH (Homo sapiens, UniProt P15428)
# Construct: 15-PGDH is highly expressed in resting human lung adenocarcinoma cells (A549); endogenous in cells; host or cells: A549
# measurementProtocol: A549 cell based assay: PGE2 in supernatant after IL-1β (HTRF)
# particulars: A549 cells; fold induction of PGE2, IL-1β plus test article versus IL-1β only; 0.1 μM
valueType: PGE2 - HTRF over IL-β induction at 0.1 μM

* O=C(c1cnc2c(ccn2-c2ccc(N3CCOC3=O)nc2)c1)N1CCCC(C(F)(F)F)C1 (centres unmarked) | 7.25
* Cc1cn2cc(-n3ccc4cc(C(=O)N5CCC(F)(F)CC5)cnc43)ccc2n1 | 5.1
* O=C(O)c1ccc(-n2ccc3cc(C(=O)N4CCC(F)(F)CC4)cnc32)s1 | 1
* CCOC(=O)Nc1cc(-n2ccc3cc(C(=O)N4CCC(F)(F)CC4)cnc32)cnc1C | 3.22
* CCC1CCCN(C(=O)c2cnc3c(ccn3-c3cncc(NC(=O)OC)c3)c2)C1 (stereo in doubt) [Compound B-70] | 4.8
* O=C(c1cnc2c(ccn2-c2ccc(N3C(=O)CCC3=O)cc2)c1)N1CCC(F)(F)CC1 | 0.86
* O=C(c1cnc2c(ccn2-c2ccc(N3CCOC3=O)nc2)c1)N1CCCC(F)(F)C1 | 4.92
* CC(C)OC(=O)Nc1cncc(-n2ccc3cc(C(=O)N4CCC(F)(F)CC4)cnc32)c1 | 3.25

---

# targetDesc: 15-PGDH/HPGD (Homo sapiens, UniProt P15428)
# measurementProtocol: hPGDH inhibitor screening biochemical assay
# particulars: 10 nM enzyme, 15 μM PGE2, 0.25 mM NAD, fluorescence ex/em 340/485 nm
Listed below: IC50 values for each entry.
valueType: IC50

- O=C(c1cnc2c(ccn2-c2ccc3nc(N4CCOCC4)nn3c2)c1)N1CCCC(F)(F)C1: < 100 nM
- CCOC(=O)Nc1cc(-n2ccc3cc(C(=O)N4CCC(F)(F)CC4)cnc32)cnc1C: < 100 nM
- COC(=O)Nc1cncc(-n2ccc3cc(C(=O)N4CCCC(C(F)(F)F)C4)cnc32)c1 (stereo not shown): < 100 nM
- N#Cc1cc(-n2ccc3cc(C(=O)N4CCC(F)(F)CC4)cnc32)ccc1-c1nnc[nH]1: < 100 nM

---

# targetDesc: 15-PGDH/HPGD (Homo sapiens, UniProt P15428)
# Sequence (P15428 1-266): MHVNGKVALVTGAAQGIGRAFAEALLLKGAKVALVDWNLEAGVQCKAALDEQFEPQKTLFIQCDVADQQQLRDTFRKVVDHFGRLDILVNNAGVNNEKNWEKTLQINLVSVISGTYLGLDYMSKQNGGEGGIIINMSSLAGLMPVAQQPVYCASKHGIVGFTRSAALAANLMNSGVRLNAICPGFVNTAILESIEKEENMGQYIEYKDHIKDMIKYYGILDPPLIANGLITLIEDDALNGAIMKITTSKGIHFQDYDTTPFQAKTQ
# measurementProtocol: hPGDH inhibitor screening biochemical assay
# particulars: 10 nM enzyme, 15 μM PGE2, 0.25 mM NAD, fluorescence ex/em 340/485 nm
valueType: IC50

• O=C(c1cnc2c(ccn2-c2cc(Cl)cc(-c3nnc[nH]3)c2)c1)N1CC[S+]([O-])CC1 = < 0.1 µM
• O=C(c1cnc2c(ccn2-c2cncc(-c3n[nH]c(C4CC4)n3)c2)c1)N1CCC(F)(F)CC1 = < 0.1 µM
• O=C(c1cnc2c(ccn2-c2cccc(-c3ncc[nH]3)c2)c1)N1CCC[C@@H](O)C1 = < 0.1 µM
• CO[C@H]1CCCN(C(=O)c2cnc3c(ccn3-c3ccc(-c4nnc[nH]4)c(F)c3)c2)C1 = < 0.1 µM
• O=C(O)c1ccc(-n2ccc3cc(C(=O)N4CCC(F)(F)CC4)cnc32)cc1F = < 0.1 µM
• O=C(c1cnc2c(ccn2-c2ccc(-c3ncn[nH]3)nc2)c1)N1CCC[C@H](O)C1 = < 0.1 µM
• CO[C@@H]1CCCN(C(=O)c2cnc3c(ccn3-c3ccc(-c4nnc[nH]4)c(Cl)c3)c2)C1 = < 0.1 µM
